These entries and their values trace back to PubChem BioAssay AID2060907.

viability, T/C by entry:
- Test system: 388556-164-R-J1-PDC complex spheroid viability
- assay method text: Anticancer human tumor 388556-164-R-J1-PDC patient-derived colon adenocarcinoma cell line growth inhibition [RAS]
- experimental context: second compound 0.003 µM; first compound 0.1 µM; active compounds read low

>  <molecule>
C=CC(=O)Nc1cc(Nc2nccc(-c3cn(C)c4ccccc34)n2)c(OC)cc1N(C)CCN(C)C + CCn1c(-c2cccnc2C(C)OC)c2c3cc(ccc31)N1CCOC(CC(NC(=O)C(C(C)C)N(C)C(=O)C3(F)CCN(C(=O)C#CC(C)(C)N(C)C)CC3)C(=O)N3CCCC(N3)C(=O)OCC(C)(C)C2)C1

>  <viability, T/C (%)>
83.6

$$$$
>  <molecule>
Nc1ccn(C2OC(CO)C(O)C2(F)F)c(=O)n1 (centres undefined) + CCn1c(-c2cccnc2C(C)OC)c2c3cc(ccc31)N1CCOC(CC(NC(=O)C(C(C)C)N(C)C(=O)C3(F)CCN(C(=O)C#CC(C)(C)N(C)C)CC3)C(=O)N3CCCC(N3)C(=O)OCC(C)(C)C2)C1

>  <viability, T/C (%)>
72.1

$$$$
>  <molecule>
C[C@@H](NC(=O)c1ncnc(N)c1Cl)c1ncc(C(=O)Nc2cc(C(F)(F)F)c(Cl)cn2)s1 + CCn1c(-c2cc(N3CCN(C)CC3)cnc2C(C)OC)c2c3cc(ccc31)-c1csc(n1)CC(NC(=O)C1CC1C)C(=O)N1CCCC(N1)C(=O)OCC(C)(C)C2

>  <viability, T/C (%)>
100

$$$$
>  <molecule>
CC(C)NCC(C(=O)N1CCN(c2ncnc3c2C(C)CC3O)CC1)c1ccc(Cl)cc1 (centres undefined) + CCn1c(-c2cccnc2C(C)OC)c2c3cc(ccc31)N1CCOC(CC(NC(=O)C(C(C)C)N(C)C(=O)C3(F)CCN(C(=O)C#CC(C)(C)N(C)C)CC3)C(=O)N3CCCC(N3)C(=O)OCC(C)(C)C2)C1

>  <viability, T/C (%)>
104

$$$$

----------
- Tested on: 388556-164-R-J1-PDC complex spheroid viability
- assay method text: Anticancer human tumor 388556-164-R-J1-PDC cell line growth inhibition [RAS]; active means viability on the fitted dose curve at most 10% of control; inactive means the rest;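 note: spheroids exposed to compound for 7 days before readout; 100% = DMSO vehicle control luminescence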
- experimental context: second compound 0.3 µM; first compound 10 µM
Possible outcomes: Y for active, N for inactive

>  <compound>
CCC(CC)c1cc(NC2CCC(N)C2)n2nccc2n1 (centres undefined) + CCn1c(-c2cc(N3CCN(C)CC3)cnc2C(C)OC)c2c3cc(ccc31)-c1csc(n1)CC(NC(=O)C1CC1C)C(=O)N1CCCC(N1)C(=O)OCC(C)(C)C2

>  <cat>
Y

$$$$
>  <compound>
CC(=O)OC12COC1CC(O)C1(C)C(=O)C(O)C3=C(C)C(OC(=O)C(O)C(NC(=O)OC(C)(C)C)c4ccccc4)CC(O)(C(OC(=O)c4ccccc4)C21)C3(C)C (centres undefined) + CCn1c(-c2cc(N3CCN(C)CC3)cnc2C(C)OC)c2c3cc(ccc31)-c1csc(n1)CC(NC(=O)C1CC1C)C(=O)N1CCCC(N1)C(=O)OCC(C)(C)C2

>  <cat>
N

$$$$
>  <compound>
CC(C)NCC(C(=O)N1CCN(c2ncnc3c2C(C)CC3O)CC1)c1ccc(Cl)cc1 (centres undefined) + CCn1c(-c2cccnc2C(C)OC)c2c3cc(ccc31)N1CCOC(CC(NC(=O)C(C(C)C)N(C)C(=O)C3(F)CCN(C(=O)C#CC(C)(C)N(C)C)CC3)C(=O)N3CCCC(N3)C(=O)OCC(C)(C)C2)C1

>  <cat>
N

$$$$
>  <compound>
C[C@@H](NC(=O)c1ncnc(N)c1Cl)c1ncc(C(=O)Nc2cc(C(F)(F)F)c(Cl)cn2)s1 + CCn1c(-c2cc(N3CCN(C)CC3)cnc2C(C)OC)c2c3cc(ccc31)-c1csc(n1)CC(NC(=O)C1CC1C)C(=O)N1CCCC(N1)C(=O)OCC(C)(C)C2

>  <cat>
N

$$$$
